# TESTED_ON: Collagenase 3 (Homo sapiens)
# METHOD_SUMMARY: Inhibition of human MMP13
pIC50: −log10 of the molar value.
Assign class by pIC50: not lower than 8 means yes (1); lower than 8 means no (0).

Input: Does pIC50 meet or surpass 8 for "O=C(NCCCOc1ccc(S(=O)(=O)C2(C(=O)NO)CCOCC2)cc1)c1ccc(OC(F)(F)F)cc1" ?
Output: yes (1)

Input: Does pIC50 meet or surpass 8 for "COc1ccc(NC(=O)CCCOc2ccc(S(=O)(=O)C3(C(=O)NO)CCOCC3)cc2)cc1" ?
Output: yes (1)

Input: Does pIC50 meet or surpass 8 for "CCCC(C)(C)C(=O)NCCCOc1ccc(S(=O)(=O)C2(C(=O)NO)CCOCC2)cc1" ?
Output: no (0)

Input: Does pIC50 meet or surpass 8 for "CN(C)c1ccc(C(=O)CCCCOc2ccc(S(=O)(=O)C3(C(=O)NO)CCOCC3)cc2)cc1" ?
Output: yes (1)

* * *

# TESTED_ON: Neutrophil collagenase (Homo sapiens, UniProt P22894)
# Sequence (P22894 whole entry): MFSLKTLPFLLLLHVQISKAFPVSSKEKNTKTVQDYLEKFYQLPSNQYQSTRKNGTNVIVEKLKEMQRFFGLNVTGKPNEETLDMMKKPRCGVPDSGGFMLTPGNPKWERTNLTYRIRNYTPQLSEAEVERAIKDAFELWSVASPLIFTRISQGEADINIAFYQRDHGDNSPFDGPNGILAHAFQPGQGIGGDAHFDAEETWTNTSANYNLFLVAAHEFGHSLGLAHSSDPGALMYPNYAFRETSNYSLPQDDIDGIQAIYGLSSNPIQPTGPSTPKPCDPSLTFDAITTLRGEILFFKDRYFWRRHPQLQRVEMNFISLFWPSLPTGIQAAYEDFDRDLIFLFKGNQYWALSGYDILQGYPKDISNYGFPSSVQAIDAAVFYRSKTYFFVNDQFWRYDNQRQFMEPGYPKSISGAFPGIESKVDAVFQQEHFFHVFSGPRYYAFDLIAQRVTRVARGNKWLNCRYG
# METHOD_SUMMARY: Inhibition of human MMP8
ENDPOINT_LABEL: IC50 (nM)
// note: answer is a bare numeric in nM

Input: If you can, please state the reported IC50 value of "COc1ccc(OCCCCOc2ccc(S(=O)(=O)C3(C(=O)NO)CCOCC3)cc2)cc1" .
Output: 67

Input: If you can, please state the reported IC50 value of "COc1ccc(C(=O)NCCCOc2ccc(S(=O)(=O)C3(C(=O)NO)CCOCC3)cc2)cc1" .
Output: 900

Input: If you can, please state the reported IC50 value of "CN(C)c1ccc(C(=O)CCCOc2ccc(S(=O)(=O)C3(C(=O)NO)CCOCC3)cc2)cc1" .
Output: 170

Input: If you can, please state the reported IC50 value of "O=C(CCCOc1ccc(S(=O)(=O)C2(C(=O)NO)CCOCC2)cc1)N1CCCCC1" .
Output: 800

Input: If you can, please state the reported IC50 value of "CN(C(=O)CCCOc1ccc(S(=O)(=O)C2(C(=O)NO)CCOCC2)cc1)c1ccc(OC(F)(F)F)cc1" .
Output: 49

Input: If you can, please state the reported IC50 value of "COc1ccc(NC(=O)CCCOc2ccc(S(=O)(=O)C3(C(=O)NO)CCOCC3)cc2)cc1" .
Output: 31

Input: If you can, please state the reported IC50 value of "CN(C)c1ccc(C(=O)CCOc2ccc(S(=O)(=O)C3(C(=O)NO)CCOCC3)cc2)cc1" .
Output: 120

Input: If you can, please state the reported IC50 value of "O=C(NCCCOc1ccc(S(=O)(=O)C2(C(=O)NO)CCOCC2)cc1)C1CCCCC1" .
Output: 3100

Input: If you can, please state the reported IC50 value of "CN(C)c1ccc(NC(=O)CCCCOc2ccc(S(=O)(=O)C3(C(=O)NO)CCOCC3)cc2)cc1" .
Output: 2.6

Input: If you can, please state the reported IC50 value of "CCCC(C)(C)C(=O)NCCCOc1ccc(S(=O)(=O)C2(C(=O)NO)CCOCC2)cc1" .
Output: 1200

Input: If you can, please state the reported IC50 value of "CN(C)c1ccc(C(=O)CCCCOc2ccc(S(=O)(=O)C3(C(=O)NO)CCOCC3)cc2)cc1" .
Output: 140

Input: If you can, please state the reported IC50 value of "O=C(CCCOc1ccc(S(=O)(=O)C2(C(=O)NO)CCOCC2)cc1)Nc1ccc(OC(F)(F)F)cc1" .
Output: 6.7

Input: If you can, please state the reported IC50 value of "CN(C)c1ccc(C(=O)NCCCOc2ccc(S(=O)(=O)C3(C(=O)NO)CCOCC3)cc2)cc1" .
Output: 1000
